These data points were gathered from ChEMBL document CHEMBL1208769.

- Test system: Trypanosoma cruzi
- experiment: Antitrypanosomal activity against Trypanosoma cruzi Tulahuen 2 epimastigotes assessed as inhibition of parasite growth at 25 uM relative to control
- Format: functional
- condition.parameters: read-out: GI
test.readout: inhibition of growth at 25 µM (%)
A number alone suffices; assume %.

Known results for compounds:
                                smiles_data  experimental_result
0  N#Cc1c(-c2ccccc2)[n+]([O-])c2cc(F)c(F)cc2[n+]1[O-]                 81.1
1  Cc1ccc(-c2c(C#N)[n+]([O-])c3cc(F)ccc3[n+]2[O-])cc1                 87.3
2  COc1ccc2c(c1)[n+]([O-])c(C#N)c(-c1ccccc1)[n+]2[O-]                  111

[ask] Using known records, supply inhibition of growth at 25 µM for Cc1ccc(-c2c(C#N)[n+]([O-])c3cc(Cl)c(Cl)cc3[n+]2[O-])cc1
[reply] 95.6

[ask] Using known records, supply inhibition of growth at 25 µM for COc1ccc2c(c1)[n+]([O-])c(C#N)c(-c1ccco1)[n+]2[O-]
[reply] 33.4

[ask] Using known records, supply inhibition of growth at 25 µM for Cc1ccc2c(c1)[n+]([O-])c(C#N)c(-c1ccccc1)[n+]2[O-]
[reply] 88.1
